test system: MS2 coat protein; experiment: apparent KD of MS2 coat protein; designed switch direction (-1 OFF switch, 1 ON switch): 1; higher = weaker reporter binding; details: input ligand: FMN 200 uM
Reported apparent KD of MS2 coat protein values follow for various sequences
Enter your answer as a number in nM; do not include the unit.

biopolymer_sequence | apparent KD of MS2 coat protein / nM
UUGCUCGUGUGAGGAUAUGCAGCCGUUUCGGCUGCAGAAGGUACUAUAAUACAUGAGGAUCACCCAUGUCUCUGUUGUUUGGUG [salish99_SSNG1_r04_930] (Eterna round: R96, puzzle: Same State NG 1) | 69.7

State, in one line, measured apparent KD of MS2 coat protein of GGUGCCAAAUAAGCCUACAUGAGGAUCACCCAUGUAUGUAGGCAGGAUAUCGUUUGCAAAGCAAACGAGAAGGGCCUAGGCACC [Mat - Same State NG 3 - JL Mod - D62] (Eterna round: R96, puzzle: Same State NG 3)
19.1

State, in one line, measured apparent KD of MS2 coat protein of GCCGGCUGGUGAGGAUAUGGCGCCUUGUUGGUGCCAGAAGGCAUGUCUUUUGACAUGAGGAUCACCCAUGUGUUGUCGUUGGCG [salish99_SSNG1_r04_613] (Eterna round: R96, puzzle: Same State NG 1)
221

State, in one line, measured apparent KD of MS2 coat protein of CCAAAUUGAAUCCACAUGAGGAUCACCCAUGUCCAACCGGUCUAGGAUAUCACAGCAAGCGCGUGUGAGAAGGAGAAAACAAGC [Eternabot solution 34] (Eterna round: R96, puzzle: Same State NG 3)
42.1

State, in one line, measured apparent KD of MS2 coat protein of AGUAUUAAUGCAGGAUAUGAUUAACAUGAGGAUCACCCAUGUGGUGUUGUGAGUAAGGAGAGUGAUCAGAAGGGCAUUUUUUUU [JMF's solution 38] (Eterna round: R96, puzzle: Same State NG 2)
414

State, in one line, measured apparent KD of MS2 coat protein of UGGCUCAGACUAGGAUAUGAUCAUGGCGCUUCGGCGCAUACAUGAGGAUCACCCAUGUAAAGUGAUCAGAAGGAGUCUGAGCCU [SSNG2/7-C3] (Eterna round: R96, puzzle: Same State NG 2)
14.2

---

test system: MS2 coat protein; experiment: apparent KD of MS2 coat protein; higher = weaker reporter binding; settings: Eterna round: R107; input ligand: theophylline 2 mM
Response key: Satisfied means apparent KD of MS2 coat protein >= 0.04 µM; Not satisfied means apparent KD of MS2 coat protein < 0.04 µM.

biopolymer_sequence | label
UGUAUGUGAUCUGAUACCAGAGUGACGCGAAAGCGAAACCUGAGGAUCACCCUGGUAAAACUCCCUUGGCAGCAGAUCGCAUACU | Not satisfied
GCUAGGUCAUCGGCCGCCACUAACGACGGUUCCAACAUGAGGAUCACCCAUGUGCCACAUGCGCAUAGGACCGGGAUGACCUAGC [SSTB NP+V+V2 #5] | Satisfied
GCGUUCUCUGCGGCCGCCACUCAAGGAGCUACAUAGCUCCUAGACAUGAGGAUCACCCAUGUCGCGAGGACCGGGUAGAUCCUUA [Same State Typptophan B GF8] | Satisfied
AUGCAUAGCGGAAGGAGCGCAAUAGAAUGACAUGAGGAUCACCCAUGUGUGUGAUGUGGAUUGCAGGUAGGUCGCCGAGUGGUAU [Exclusion - Arginine B (Freestyle 3)] | Satisfied
CCAUGCAGGUCGGCCGCCACUACACACAUGAGGAUCACCCAUGUAGUUACUGGGUGAAGUGGCAGUAGGACCGGGACCUGCAUAC [Brourdmod12] | Satisfied

Let us examine a further case.
Decide: is the reported value of apparent KD of MS2 coat protein for CGCCGAGAGGGAAGGAGCGCGAUAACAUAACAUGAGGAUCACCCAUGUAAGAAAUUAAUCAUGCAGGUAGGUCGCCCAAGCGGCG [Same State Arginine B GF 3] equal to or greater than 0.04 µM?
Not satisfied

Numbers sourced from the supplement of paper PMC9170038.
